# Tested on: Oryctolagus cuniculus
# protocol_description: Toxicity in New Zealand albino rabbit assessed as weight loss at 100 nmol/kg, sc using liposomal formulation measured up to 2 months post dose
# Type: organism-based
# condition_summary: in vivo
metric_name: Activity

- compound: "CCCCCCCCCCCCCCCCCC(=O)NCCCC[C@H](NC(=O)CC[C@@H](NC(=O)[C@H](CC)NC(=O)CO[C@H]1[C@H](O[C@@H]2O[C@H](CO)[C@@H](O)[C@H](O)[C@H]2NC(C)=O)[C@@H](CO)OC(O)[C@@H]1NC(C)=O)C(N)=O)C(=O)O (stereo partly drawn)"
  metric_name: "Activity"
  result: "Non-Toxic"
- compound: "CCCCCCCCCCCCCCC(CCCCCCCCCCCCCC)C(=O)NCCCC[C@H](NC(=O)CC[C@@H](NC(=O)[C@H](CC)NC(=O)CO[C@H]1[C@H](O[C@@H]2O[C@H](CO)[C@@H](O)[C@H](O)[C@H]2NC(C)=O)[C@@H](CO)OC(O)[C@@H]1NC(C)=O)C(N)=O)C(=O)O (stereo partly drawn)"
  metric_name: "Activity"
  result: "Non-Toxic"
- compound: "CCCCCCCCCCCCCCC(CCCCCCCCCCCCCC)C(=O)N[C@H]1[C@H](O[C@H]2[C@H](OCC(=O)N[C@@H](CC)C(=O)N[C@H](CCC(=O)O)C(N)=O)[C@@H](NC(C)=O)C(O)O[C@@H]2CO)O[C@H](CO)[C@@H](O)[C@@H]1O (stereo partly drawn)"
  metric_name: "Activity"
  result: "Non-Toxic"
